- method.description: qHTS assay to identify small molecule agonists of the sonic hedgehog signaling (Shh) pathway (AID 1259368);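 note: NIH/3T3-derived 3T3Gli1-Luc cells carrying a stable Gli1-driven firefly luciferase reporter; % is set by controls: 0 for no effect and ±100 for the full control effect; nearly all actives have a fitted effect of over 15% in size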
- experimental.parameters: NIH/3T3 Gli1-Luc reporter, luciferase, 24 h; series mostly up to 92.4 µM
The source made the active and inactive calls. Calls come from the whole dose curve.
endpoint.name: activity change

CNC(=O)c1ccccc1Sc1ccc2c(/C=C/c3ccccn3)n[nH]c2c1: inactive
Nc1nc2c(ncn2COCCO)c(=O)[nH]1: inactive
CCOc1ccc2ccccc2c1C(=O)N[C@@H]1C(=O)N2[C@@H]1SC(C)(C)[C@@H]2C(=O)O: inactive

* * *

- method.description: A CellTox Green Cytotoxicity Assay to monitor cytotoxicity in HEK293 cells - 0 hour (AID 1224869); note: % is set by controls: 0 for no effect and ±100 for the full control effect; nearly all actives have a fitted effect of over 50% in size
- experimental.parameters: CellTox Green fluorescence; series mostly up to 76.8 µM
- Source text: National Center for Advancing Translational Sciences [NCATS] NIH Chemical Genomics Center [NCGC] U.S. Environmental Protection Agency [EPA] National Institutes of Environmental Health Sciences [NIEHS] National Toxicology Program [NTP] Cell-based models are critical for drug discovery. […] Viable cells produce no appreciable increases in fluorescence. Therefore, the fluorescence signal produced by the binding interaction with dead cell DNA is proportional to cytotoxicity. […]
Active and inactive are the calls of the source. Calls come from the whole dose curve; as a rule, active = well fitted activation curve with a large enough effect in the repeat runs; inconclusive = weak or mixed curves; inactive = flat fitted curve, though single readings scatter.
endpoint.name: cytotoxicity

// known answers, use as guide
CC[N+](CC)(CC)CCOc1ccc(/C=C/c2ccccc2)cc1: inactive
Cc1cccc(C)c1NC(=O)c1ccc(N)cc1: inactive
CC(N=C(NC#N)Nc1ccncc1)C(C)(C)C (centres undefined): inactive
c1ccc(C(O[C@@H]2CCCN(CCc3ccc4c(c3)OCO4)C2)c2ccccc2)cc1: inactive
CC(C)=CCC1=C(O)c2ccccc2C(=O)C1=O: inactive

## Task Fill in: cytotoxicity of CC(C)(C)c1ccc(C(O)CCCN2CCC(C(O)(c3ccccc3)c3ccccc3)CC2)cc1 (centres undefined) is ___
## Result inactive

## Task cytotoxicity lookup needed for `O=C(O)c1cccc(C(F)(F)F)c1` , thanks.
## Result inactive

## Task State the recorded cytotoxicity for this entry: `O=C(c1ccc(O)c(O)c1)c1ccc(O)cc1O`
## Result inactive

## Task Using the record for `OC[C@H]1O[C@H](O[C@H]2O[C@H](CO)[C@@H](O)[C@H](O)[C@H]2O)[C@H](O)[C@@H](O)[C@@H]1O` , report its cytotoxicity.
## Result inactive

## Task What measured cytotoxicity goes with `CC(=O)OCC=C(C)C` ?
## Result inactive

## Task Look at this compound and give its reported cytotoxicity. `COc1cc2nc(N3CCN(C(=O)c4ccco4)CC3)nc(N)c2cc1OC`
## Result 2.18% [at 15.8 µM] (inactive)

## Task Recorded cytotoxicity for CCOC(=O)NNc1ccc(N(CC)CC(C)O)nn1 (centres undefined) , please?
## Result inactive

## Task Entry under review: `CCCCOC(=O)CC` . Reported cytotoxicity?
## Result inactive

* * *

- method.description: Human pregnane X receptor (PXR) small molecule agonists, qHTS cell viability counter screen (AID 1346977); note: nearly all actives have a fitted effect of over 50% in size
- experimental.parameters: PXR-Luc HepG2 viability, CellTiter-Fluor, 24 h; series mostly up to 92.4 µM
Inconclusive results are not listed. Calls of active or inactive are those of the source. The call rests on the fitted dose curve; in most records, active means well fitted cell-killing curve with a large enough effect in the repeat runs; inconclusive means weak or mixed curves, or effect the other way; inactive means flat fitted curve, though single readings scatter.
Answer with one of the outcomes active, inactive

# example entries with known answers
O=C(O)c1cc(O)c2ccccc2c1O: active
C=CC(C)(CCC=C(C)C)OC=O (stereo unspecified): inactive
CCCCCCCC/C=C\CCCCCCCCN: inactive

Consider the record given below.
## Task What outcome does the record of this test show for `CCCCC/C=C\C/C=C\CCCCCCCC(=O)O` ?
## Result inactive

Hey, just so you know, these numbers are from PubChem BioAssay (Tox21).
